These measurements were taken from ChEMBL document CHEMBL1126615.

As shown below, each of these compounds has a reported pA2 value.
Target: Adrenergic receptor alpha-1 (Rattus norvegicus, UniProt P15823+P23944+P43140)
Sequence (P15823 whole entry): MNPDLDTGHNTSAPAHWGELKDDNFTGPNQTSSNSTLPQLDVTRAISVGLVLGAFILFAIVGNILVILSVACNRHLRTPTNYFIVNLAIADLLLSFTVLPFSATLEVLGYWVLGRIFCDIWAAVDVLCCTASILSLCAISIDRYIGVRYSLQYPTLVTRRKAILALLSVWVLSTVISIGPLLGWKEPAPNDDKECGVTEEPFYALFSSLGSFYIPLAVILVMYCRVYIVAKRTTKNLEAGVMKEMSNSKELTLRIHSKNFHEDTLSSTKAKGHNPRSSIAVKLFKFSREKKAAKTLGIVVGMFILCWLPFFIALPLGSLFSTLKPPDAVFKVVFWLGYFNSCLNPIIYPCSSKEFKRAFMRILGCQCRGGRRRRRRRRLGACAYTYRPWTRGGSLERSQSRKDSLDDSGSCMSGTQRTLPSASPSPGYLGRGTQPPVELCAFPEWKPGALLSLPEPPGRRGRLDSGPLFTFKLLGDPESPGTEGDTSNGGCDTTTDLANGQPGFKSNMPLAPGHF
Sequence (P23944 whole entry): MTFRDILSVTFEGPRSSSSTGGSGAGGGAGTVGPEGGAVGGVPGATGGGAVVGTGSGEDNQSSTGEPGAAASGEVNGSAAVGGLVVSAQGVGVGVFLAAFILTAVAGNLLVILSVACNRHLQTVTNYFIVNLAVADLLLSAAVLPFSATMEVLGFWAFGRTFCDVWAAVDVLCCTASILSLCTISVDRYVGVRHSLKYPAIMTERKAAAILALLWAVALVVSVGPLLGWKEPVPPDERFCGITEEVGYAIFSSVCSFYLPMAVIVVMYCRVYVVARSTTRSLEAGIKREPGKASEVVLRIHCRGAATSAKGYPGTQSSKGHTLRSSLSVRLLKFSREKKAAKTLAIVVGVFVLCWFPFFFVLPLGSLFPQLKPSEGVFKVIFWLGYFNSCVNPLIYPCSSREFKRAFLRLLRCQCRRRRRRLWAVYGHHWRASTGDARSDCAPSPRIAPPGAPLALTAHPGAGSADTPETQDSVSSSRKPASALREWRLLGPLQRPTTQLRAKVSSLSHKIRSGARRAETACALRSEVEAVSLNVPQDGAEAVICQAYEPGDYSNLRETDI
Sequence (P43140 whole entry): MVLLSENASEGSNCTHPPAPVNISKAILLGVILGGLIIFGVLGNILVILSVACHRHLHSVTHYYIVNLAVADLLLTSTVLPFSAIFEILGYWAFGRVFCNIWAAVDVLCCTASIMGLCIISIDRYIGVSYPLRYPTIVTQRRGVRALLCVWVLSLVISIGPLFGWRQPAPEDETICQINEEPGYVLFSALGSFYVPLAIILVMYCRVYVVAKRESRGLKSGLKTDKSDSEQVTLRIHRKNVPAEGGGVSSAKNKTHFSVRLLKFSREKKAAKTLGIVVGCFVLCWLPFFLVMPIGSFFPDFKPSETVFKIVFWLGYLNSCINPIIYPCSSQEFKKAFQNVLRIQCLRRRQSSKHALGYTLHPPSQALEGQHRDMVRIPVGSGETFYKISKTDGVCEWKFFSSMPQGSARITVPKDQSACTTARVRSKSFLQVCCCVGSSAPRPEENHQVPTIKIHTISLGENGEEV
Assay: Alpha-1 Adrenoceptor blocking activity as antagonism of norepinephrine-induced contractions of epididymal portion of rat vas deferens
Type: functional, tissue-based
observed_property: pA2

> print(dat)
                                   compound  recorded.value
1  COc1cc2nc(N3CCN(C(=O)c4ccco4)C[C@H]3C)nc(N)c2cc1OC            8.13
2  COc1cc2nc(N3CCN(C(=O)c4ccco4)C(C)C3)nc(N)c2cc1OC (stereo not given)            8.61
3  COc1cc2nc(N3CCN(C(=O)c4ccco4)C(C)[C@H]3C)nc(N)c2cc1OC (stereo in doubt; 9)            8.75
4  COc1cc2nc(N(C)[C@@H]3CCCCC3N(C)C(=O)c3ccco3)nc(N)c2cc1OC (stereo in doubt; 5)             5.8
5  COc1cc2nc(NC3CCCCC3NC(=O)c3ccco3)nc(N)c2cc1OC (cis isomer)            5.74
